Collected residual activity values appear next to each entry.
# system-name: Protein kinase C delta type (Homo sapiens)
# test-description: Inhibition of human PKCdelta at 1 uM relative to control; values are per cent of control
Note: unit % is implicit; provide only the numeric part.

Sample records with residual activity:
O=C1NC(=O)C2=C1c1cn(c3ccccc13)CCCc1ccc(c(N3CCCC3)n1)CCCn1cc2c2ccccc21 | 91
CN(C)c1cc2cc(n1)CCCn1cc(c3ccccc31)C1=C(C(=O)NC1=O)c1cn(c3ccccc13)CCC2 | 100
CN(C)c1nc2ccc1CCCn1cc(c3ccccc31)C1=C(C(=O)NC1=O)c1cn(c3ccccc13)CC2 | 73

Please find the next molecule below.
Query: So what's the measured residual activity for this one? O=C1NC(=O)C2=C1c1cn(c3ccccc13)CCCc1cc(nc(N3CCCC3)c1)CCCn1cc2c2ccccc21
Reply: 104

---

# Species: Homo sapiens
# test-description: Residual activity of human PKBgamma at 1 uM relative to control
# key: entry, value: residual activity
Enter your answer as a number in %; do not include the unit.

Solved cases below.
O=C1NC(=O)C2=C1c1cn(c3ccccc13)CCCc1ccc(c(N3CCCC3)n1)CCCn1cc2c2ccccc21 | 105
CN(C)c1nc2ccc1CCCn1cc(c3ccccc31)C1=C(C(=O)NC1=O)c1cn(c3ccccc13)CC2 | 93
CN(C)c1cc2cc(n1)CCCn1cc(c3ccccc31)C1=C(C(=O)NC1=O)c1cn(c3ccccc13)CCC2 | 106

--- query ---
Query: Look at this compound and give its reported residual activity. O=C1NC(=O)C2=C1c1cn(c3ccccc13)CCCc1cc(nc(N3CCCC3)c1)CCCn1cc2c2ccccc21
Reply: 103

---

# system-name: RAF proto-oncogene serine/threonine-protein kinase (Homo sapiens) (UniProt P04049)
# Sequence (P04049 whole entry): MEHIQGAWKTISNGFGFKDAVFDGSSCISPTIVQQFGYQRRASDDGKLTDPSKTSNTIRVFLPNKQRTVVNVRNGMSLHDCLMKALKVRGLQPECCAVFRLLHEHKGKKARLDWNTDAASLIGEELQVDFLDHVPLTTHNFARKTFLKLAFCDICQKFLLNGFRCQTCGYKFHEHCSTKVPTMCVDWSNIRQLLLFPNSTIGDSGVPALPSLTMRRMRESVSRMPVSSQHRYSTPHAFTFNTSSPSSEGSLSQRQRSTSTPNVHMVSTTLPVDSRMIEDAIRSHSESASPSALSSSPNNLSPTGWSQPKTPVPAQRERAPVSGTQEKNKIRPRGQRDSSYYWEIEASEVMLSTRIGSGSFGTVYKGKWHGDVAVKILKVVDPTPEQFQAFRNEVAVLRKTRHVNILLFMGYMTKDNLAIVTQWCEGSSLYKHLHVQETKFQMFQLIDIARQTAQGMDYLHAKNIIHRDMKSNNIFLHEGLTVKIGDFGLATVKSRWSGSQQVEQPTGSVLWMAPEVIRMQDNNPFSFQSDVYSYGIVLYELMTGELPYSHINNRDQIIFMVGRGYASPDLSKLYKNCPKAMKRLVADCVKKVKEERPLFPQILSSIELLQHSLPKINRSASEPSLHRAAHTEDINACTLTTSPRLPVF
# test-description: Residual activity of humna c-RAF at 1 uM relative to control
Consider the following molecules and their measured residual activity readings.

# example entries with known answers
O=C1NC(=O)C2=C1c1cn(c3ccccc13)CCCc1cc(nc(N3CCCC3)c1)CCCn1cc2c2ccccc21 | 92%
CN(C)c1cc2cc(n1)CCCn1cc(c3ccccc31)C1=C(C(=O)NC1=O)c1cn(c3ccccc13)CCC2 | 87%

Query: Can you look up residual activity on RAF proto-oncogene serine/threonine-protein kinase (Homo sapiens) (UniProt P04049) for CN(C)c1nc2ccc1CCCn1cc(c3ccccc31)C1=C(C(=O)NC1=O)c1cn(c3ccccc13)CC2 ?
Reply: 103%

Query: And O=C1NC(=O)C2=C1c1cn(c3ccccc13)CCCc1ccc(c(N3CCCC3)n1)CCCn1cc2c2ccccc21 ?
Reply: 85%

---

# system-name: Tyrosine-protein kinase Yes (Homo sapiens)
# test-description: Inhibition of human Yes kinase at 1 uM relative to control; values are per cent of control
Listed below: residual activity values for each entry.
Quick reminder: number only, in %, skip the unit.

Study these solved cases before continuing.
CN(C)c1cc2cc(n1)CCCn1cc(c3ccccc31)C1=C(C(=O)NC1=O)c1cn(c3ccccc13)CCC2 | 79
O=C1NC(=O)C2=C1c1cn(c3ccccc13)CCCc1cc(nc(N3CCCC3)c1)CCCn1cc2c2ccccc21 | 58
O=C1NC(=O)C2=C1c1cn(c3ccccc13)CCCc1ccc(c(N3CCCC3)n1)CCCn1cc2c2ccccc21 | 43

Query: What value of residual activity has been reported for the following compound? CN(C)c1nc2ccc1CCCn1cc(c3ccccc31)C1=C(C(=O)NC1=O)c1cn(c3ccccc13)CC2
Reply: 96
